From: the supplement of paper PMC8253809

Test system: HGGX39 (paediatric high-grade glioma line)
Experiment: EC50 (inflection of fitted growth-inhibition curve) (log10 M)
EC50 (log10 M) under -5 gets condition met, anything at or over -5 gets condition not met.

Reference set, count: 2
{"Compound": "CCN(CC)CCCC(C)Nc1c2ccc(Cl)cc2nc2ccc(OC)cc12 (stereo not drawn)", "Assigned Category": "condition not met"}
{"Compound": "CCOc1cc(C(C)(C)C)ccc1C1=N[C@@](C)(c2ccc(Cl)cc2)[C@@](C)(c2ccc(Cl)cc2)N1C(=O)N1CCN(CCCS(C)(=O)=O)CC1", "Assigned Category": "condition not met"}

A record lists CN(C)C/C=C/C(=O)Nc1cc2c(Nc3ccc(F)c(Cl)c3)ncnc2cc1O[C@H]1CCOC1 . Is its EC50 (log10 M) below -5? condition not met

For CNC(=O)c1cc(Oc2ccc(NC(=O)Nc3ccc(Cl)c(C(F)(F)F)c3)c(F)c2)ccn1 , is the recorded EC50 (log10 M) below the cut-off of -5? condition met

Hello, I'm reviewing records and need to know if EC50 (log10 M) of CCN(CC)CCOCCOC(=O)C(CC)(CC)c1ccccc1 is below -5. Could you check? condition not met

Strictly below -5 in EC50 (log10 M)? OCCN1CCN(CCCN2c3ccccc3Sc3ccc(C(F)(F)F)cc32)CC1 condition not met

* * *

Tested on: SUDIPGXXI (diffuse intrinsic pontine glioma line)
Assay: area under dose-response curve of % growth inhibition (log2 RLU vs DMSO / staurosporine), 1e-11 to 1e-4 M (% x log10 M); higher = more growth inhibition
Value Kind: area under dose-response curve
Output spec: single numeric token, no unit.

Solved entries (count: 5):
{"Molecule": "CCN1CCN(Cc2ccc(Nc3ncc(F)c(-c4cc(F)c5nc(C)n(C(C)C)c5c4)n3)nc2)CC1", "Value Kind": "area under dose-response curve", "Reported Measurement": 252}
{"Molecule": "COC(=O)Nc1nc2cc(C(=O)c3ccccc3)ccc2[nH]1", "Value Kind": "area under dose-response curve", "Reported Measurement": 246}
{"Molecule": "Cn1cnc([N+](=O)[O-])c1Sc1ncnc2[nH]cnc12", "Value Kind": "area under dose-response curve", "Reported Measurement": 119}
{"Molecule": "N#CN=C(NCCCCCCOc1ccc(Cl)cc1)Nc1ccncc1", "Value Kind": "area under dose-response curve", "Reported Measurement": 587}
{"Molecule": "CC(C)c1cc(-c2n[nH]c(=O)n2-c2ccc3c(ccn3C)c2)c(O)cc1O", "Value Kind": "area under dose-response curve", "Reported Measurement": 432}

What does the record list as area under dose-response curve for CC(C)C[C@H](NC(=O)[C@H](CCc1ccccc1)NC(=O)CN1CCOCC1)C(=O)N[C@@H](Cc1ccccc1)C(=O)N[C@@H](CC(C)C)C(=O)[C@@]1(C)CO1 ? 649

Any idea what its area under dose-response curve is? The molecule is COC(=O)[C@]12CCC(C)(C)C[C@H]1[C@H]1C(=O)C=C3[C@@]4(C)C=C(C#N)C(=O)C(C)(C)[C@@H]4CC[C@@]3(C)[C@]1(C)CC2 231

Entry under review: NC(=O)Nc1sc(-c2ccc(F)cc2)cc1C(N)=O . Reported area under dose-response curve? 99.3

// query area under dose-response curve value for entry O=C(Nc1ccccc1-c1cn2c(CN3CCNCC3)csc2n1)c1cnc2ccccc2n1 178

May I ask what area under dose-response curve has been recorded for Cc1ccc2nc(NCCN)c3ncc(C)n3c2c1 ? 143

Please look up its area under dose-response curve: COc1cc(F)ccc1-c1ncnc(Nc2cccc(CS(C)(=N)=O)c2)n1 (configuration not stated) 226

// area under dose-response curve lookup, key: CC(C)N(CCCNC(=O)Nc1ccc(C(C)(C)C)cc1)C[C@H]1O[C@@H](n2cc(Br)c3c(N)ncnc32)[C@H](O)[C@@H]1O 82.6

* * *

Test system: SUDIPGXVII (diffuse intrinsic pontine glioma line)
Assay: area under dose-response curve of % growth inhibition (log2 RLU vs DMSO / staurosporine), 1e-11 to 1e-4 M (% x log10 M); higher = more growth inhibition
Value Kind: area under dose-response curve

Use these answered entries as a reference point.
{"Compound": "Nc1ccccc1NC(=O)c1ccc(CNc2nccc(-c3cccnc3)n2)cc1 [MOCETINOSTAT]", "Tested Target": "SUDIPGXVII", "area under dose-response curve": 155}
{"Compound": "N#CN=C(NCCCCCCOc1ccc(Cl)cc1)Nc1ccncc1 [GMX-1778]", "Tested Target": "SUDIPGXVII", "area under dose-response curve": 245}
{"Compound": "CC12CC3CC(C)(C1)CC(N)(C3)C2 [MEMANTINE]", "Tested Target": "SUDIPGXVII", "area under dose-response curve": 1.91}
{"Compound": "COC(=O)Nc1nc2cc(C(=O)c3ccccc3)ccc2[nH]1 [MEBENDAZOLE]", "Tested Target": "SUDIPGXVII", "area under dose-response curve": 40.1}

// map CN(C)C/C=C/C(=O)Nc1cc2c(Nc3ccc(F)c(Cl)c3)ncnc2cc1O[C@H]1CCOC1 [AFATINIB] to recorded area under dose-response curve (system: SUDIPGXVII) 87.7

Which measured area under dose-response curve belongs to C[C@@H]1O[C@@H](O[C@H]2C[C@@H](O)[C@]3(CO)[C@H]4[C@H](O)C[C@]5(C)[C@@H](C6=CC(=O)OC6)CC[C@]5(O)[C@@H]4CC[C@]3(O)C2)[C@H](O)[C@H](O)[C@H]1O [OUABAIN] , tested on SUDIPGXVII? 186

Kindly state the measured area under dose-response curve obtained for COc1ncc(-c2ccc3nccc(-c4ccnnc4)c3c2)cc1NS(=O)(=O)c1ccc(F)cc1F [OMIPALISIB] with SUDIPGXVII. 251

Test system SUDIPGXVII; read-out area under dose-response curve; what value for CC(C)C[C@H](NC(=O)[C@H](Cc1ccccc1)NC(=O)c1cnccn1)B(O)O [BORTEZOMIB] ? 392

Give SUDIPGXVII area under dose-response curve for CCN(c1cc(-c2ccc(CN3CCOCC3)cc2)cc(C(=O)NCc2c(C)cc(C)[nH]c2=O)c1C)C1CCOCC1 [EPZ-6438] 4.66

* * *

Tested on: HGGX39
Assay: area under dose-response curve of % growth inhibition (log2 RLU vs DMSO / staurosporine), 1e-11 to 1e-4 M (% x log10 M); higher = more growth inhibition
Value Kind: area under dose-response curve

{"Molecule": "CC[C@@]1(O)C[C@H](O[C@H]2C[C@H](N(C)C)[C@H](O[C@H]3C[C@H](O)[C@H](O[C@H]4CCC(=O)[C@H](C)O4)[C@H](C)O3)[C@H](C)O2)c2c(cc3c(c2O)C(=O)c2c(O)cccc2C3=O)[C@H]1C(=O)OC [ACLARUBICIN]", "Reported Measurement": 118}
{"Molecule": "CCN(CCO)CCCC(C)Nc1ccnc2cc(Cl)ccc12 (stereo not given) [HYDROXYCHLOROQUINE]", "Reported Measurement": 0}
{"Molecule": "COc1cc([C@@H]2c3cc4c(cc3[C@@H](O[C@@H]3O[C@@H]5CO[C@@H](C)O[C@H]5[C@H](O)[C@H]3O)[C@H]3COC(=O)[C@H]23)OCO4)cc(OC)c1O [ETOPOSIDE]", "Reported Measurement": 33.1}
{"Molecule": "Cc1c(C2CCN(CCc3ccccc3)CC2)noc1-c1ccc(Cl)cc1 [L-741,742]", "Reported Measurement": 96.9}
{"Molecule": "C[C@@H]1CC[C@H]2[C@@H](C)C(=O)O[C@@H]3O[C@@]4(C)CC[C@@H]1[C@]32OO4 [ARTEMISININ]", "Reported Measurement": 36.8}
{"Molecule": "CCN(CC)CCOc1ccc(C(=C(Cl)c2ccccc2)c2ccccc2)cc1 [CLOMIPHENE]", "Reported Measurement": 139}
{"Molecule": "COc1cc2ncnc(Nc3ccc(F)c(Cl)c3)c2cc1OCCCN1CCOCC1 [GEFITINIB]", "Reported Measurement": 47.9}
{"Molecule": "Cc1oncc1C(=O)Nc1ccc(C(F)(F)F)cc1 [LEFLUNOMIDE]", "Reported Measurement": 4.82}

Item: CC(C)[C@H]1C(=O)N[C@@H](CCCNC(=N)N)C(=O)NCC(=O)N[C@@H](CC(=O)O)C(=O)N[C@H](Cc2ccccc2)C(=O)N1C [CILENGITIDE] Test system: HGGX39 Read-out: area under dose-response curve Value: ? 4.22

Requested read-out area under dose-response curve, target or system HGGX39, entry COc1cccc2c1c(O)c(C(=O)N(C)c1ccc(C(F)(F)F)cc1)c(=O)n2C [TASQUINIMOD] 0

Lab note: need area under dose-response curve with HGGX39 for entry O=c1[nH]c(=O)n([C@H]2C[C@H](O)[C@@H](CO)O2)cc1F [FLOXURIDINE] , please look it up. 26.8

Identify the measured area under dose-response curve of Cc1ccc(Nc2nccc(N(C)c3ccc4c(C)n(C)nc4c3)n2)cc1S(N)(=O)=O [PAZOPANIB] for HGGX39. 14.8

Please provide the recorded area under dose-response curve for CCC(CC)(NC(=O)C(C)C)C(=O)N[C@@H](CCCN=C(N)N)C(=O)NC1(C(=O)NC(c2ccc(F)cc2)c2ccc(F)cc2)CCCC1 [MM-102] , tested on HGGX39. 12.2

Observed area under dose-response curve on HGGX39 for Nc1ncn([C@H]2C[C@H](O)[C@@H](CO)O2)c(=O)n1 [DECITABINE] , please. 7.33

Lab note: need area under dose-response curve with HGGX39 for entry CCNC(=O)c1noc(-c2cc(C(C)C)c(O)cc2O)c1-c1ccc(CN2CCOCC2)cc1 [NVP-AUY922] , please look it up. 275
